- target.entity: T1, Soluble IGF-1R (sIGF-1R), R&D Systems Cat. # 391-GR/CF (UniProt P08069 31-935, limits assumed)
- T1 construct: extracellular domain
- procedure.summary: phage ELISA
Kind request: treat 5 as inclusive, so Ratio over Background at 5 or higher is Satisfied, anything lower is Not satisfied.

binder | answer.label
IQQELTFYDLLHRLVRSELGS [20E2B-3-D2-IGFR] | Satisfied
RQGTGSFYLMLEQLLVGARGP [20E2B-4-G11-IGFR] | Not satisfied
MMVVDGFYDALHQLVVAQSLG [20E2A-3-D10-IGFR] | Satisfied
TLRSPTFYDWLEMVLTHGQGG [20E2B-1-A8-IGFR] | Not satisfied
SACQFDCHENFYDWFARQVSGGAAYG [H2CA-4-H8-IGFR] | Satisfied
GRTMAVMAAGGPDDPFYHKLSELVQGG [B6Hα-2-D6-IR] | Not satisfied
